- System: Aspergillus niger
- Assay comment: Antifungal activity against Aspergillus niger MTCC 282 assessed as growth inhibition at 12.5 to 1000 ug/mL after 48 hr by broth dilution method
- Assay type: functional, organism-based
Calls of active or inactive are those of the source. The calls are words filed in the database; no cut-off is given here.
Answer with one of the outcomes given here: active, inactive

Entry smiles	Class
CC1=N/C(=C/c2cccc(C)c2)C(=O)N1c1ccc(/C(C)=N/NC(N)=S)cc1	active

Could you now look at the following compound, please?
Task item: What did the test return for `CC1=N/C(=C/c2cccc(O)c2)C(=O)N1c1ccc(/C(C)=N/NC(N)=S)cc1` ?
Reply: active

* * *

- Test system: Aspergillus niger
- Assay comment: Antifungal activity against Aspergillus niger MTCC 282 assessed as growth inhibition at 12.5 to 1000 ug/mL after 48 hr by broth dilution method
- Assay type: functional, organism-based
Active and inactive are the calls of the source. No cut-off for these calls is given here.
Choose the fitting class; nothing outside active, inactive is accepted.

Worked cases, answers included:
Entry smiles	Target desc	Class
CC1=N/C(=C/c2ccc(O)cc2)C(=O)N1c1ccc(/C(C)=N/NC(N)=S)cc1	Aspergillus niger	active
COc1ccc(/C=C2/N=C(C)N(c3ccc(C(C)=O)cc3)C2=O)cc1	Aspergillus niger	inactive

Next:
Task item: // outcome(item) with item = `CC(=O)c1ccc(N2C(=O)/C(=C\c3cccc(C)c3)N=C2C)cc1`
Reply: inactive

Data provenance: ChEMBL document CHEMBL3046556
